Where do these numbers come from? They come from a melting point compilation (Tetko et al.; mined from patent text by program, amines drawn as free bases though some values may be those of a salt).

# melting point per record follows

The molecule listed as CC(C(=O)NO)C(=O)N(c1ccccc1)c1ccccc1 (centres undefined) has a reported melting point of 171 to 172 °C

----------
# melting point per record follows

COC(=O)c1nc2cc(Cl)cc(C)c2c(O)c1C(=O)OC
117 to 119 °C
CSc1nnc2c(=O)c3ccc(Cl)cc3ccn12
254 to 255 °C

The compound listed as COc1ccc(NS(=O)(=O)c2ccc(NC3=C(Cl)C(=O)c4ccccc4C3=O)cc2OC)cc1 has a reported melting point of 165 to 167 °C

The compound listed as CN(C)C(=O)C(Cc1ccccc1)NC(=O)Nc1n[nH]c(=S)s1 (stereo unspecified) has a reported melting point of 196 to 197 °C

The compound listed as CCCCOC(=O)c1cc([N+](=O)[O-])c(Oc2ccc(OCc3ccccc3)cc2)c(S(N)(=O)=O)c1 has a reported melting point of 138 to 144 °C

The compound listed as CC(C)(C)C(=O)c1ccc(S(=O)(=O)C[N+](=O)[O-])s1 has a reported melting point of 98 to 99 °C

----------
# melting point per record follows

In the examples that follow, each entry is paired with its recorded melting point.
COc1ccccc1C1(Cl)C(=O)Nc2ccc(C)c(Cl)c21 (stereo not drawn)
262 to 263 °C
Cc1cc2c(cc1C1=NNC(=O)CC1)OCC(=O)N2C
211 to 213 °C

The molecule listed as CCOC(=O)C=CC=Cc1ccc(F)c([N+](=O)[O-])c1 has a reported melting point of 106 to 107 °C

----------
# melting point per record follows

In the examples that follow, each entry is paired with its recorded melting point.
C#CCOC(=O)Cn1cccc1-c1nc(-c2ccc(OC)cc2)c(-c2ccc(OC)cc2)s1
100 to 103 °C
CCCCCCCCCC(=O)CCC(C)=O
52 to 53 °C
CC(C)(CO)NS(=O)(=O)c1cccc(NC(=O)c2cnn3c(C(F)(F)F)cc(-c4ccc(C(F)(F)F)c(F)c4)nc23)c1
221 °C
C=CC[C@@H]1C[C@@H](COS(C)(=O)=O)NC1=O
62 to 63 °C
COc1cc(OC)nc(Oc2cccc(Cl)c2C(=O)ON(C)C)n1
80 to 81 °C

The compound listed as Cc1cn(C(C)(C)C(=O)N(C)C)nc1-c1ccccc1Br has a reported melting point of 192 to 194 °C

The compound listed as Cn1c(-c2ccc(O)c(F)c2)cc2ncccc2c1=O has a reported melting point of 182 to 184 °C

The compound listed as O=C(CCN1CCN(c2ncccn2)CC1)N1CC2CC3CC(C2)CC1C3 has a reported melting point of 117 to 119 °C

The compound listed as COc1ccccc1N1CCN(C[C@@H](CC2CCCCC2)NC(=O)C2(C)CCCCC2)CC1 has a reported melting point of 119 to 121 °C

----------
measure.name: melting point (°C)
Express the result in °C but write the number alone.

Cc1ccc(-c2cc(C(F)(F)F)n3cnc(-c4ccncc4)c3n2)cc1C(F)(F)F
222

Next, consider the following molecule.
The molecule listed as OC(c1ccccc1)(c1ccccc1)C(c1ccc(OCc2ccccc2)cc1)n1ccnc1 (stereo not given) has a reported melting point of 204

----------
# melting point per record follows

In the examples that follow, each entry is paired with its recorded melting point.
CCc1cccc(C)c1CNc1cc(C(N)=O)cc2c1nc(C)n2C
240 to 241 °C
CCCCCc1ccc(-c2c(C(C)C)cc(-c3ccccc3)c(CO)c2C(C)C)nc1
56 to 58 °C
CCCCc1c(-c2ccncc2)[nH]c(-c2ccncc2)c1C(C)=O
93 to 95 °C

The molecule listed as CC(C)(OCc1nn(Cc2ccccc2)c2ccccc12)C(=O)N1CCOCC1 has a reported melting point of 135 to 137 °C

The molecule listed as CCOC(=O)Cc1cc(Br)c(C(=O)c2ccc(Cl)cc2)n1C has a reported melting point of 118 to 120 °C

The molecule listed as CCCC(=O)Nc1ccc2c(c1)C(=O)c1cc(NC(=O)CCC)ccc1C2=O has a reported melting point of 275 °C

The molecule listed as O=C1NC(=O)c2c1cnc1[nH]ncc21 has a reported melting point of 285 to 300 °C

The molecule listed as COc1nccc2c1C(c1ccccc1C(F)(F)F)c1c(ccnc1OC(C)C)N2 (configuration not stated) has a reported melting point of 183 to 185 °C

The molecule listed as Cc1c(C(=O)Nc2ccc(CN3CCC(N4CCOCC4)CC3)c(C#N)c2)cnn1-c1ccc(Cl)cc1 has a reported melting point of 167 to 168 °C

The molecule listed as Cc1ncc([N+](=O)[O-])n1CCN1C(=O)CC(C)(C)CC1=O has a reported melting point of 153 to 154 °C

----------
# melting point per record follows

In the examples that follow, each entry is paired with its recorded melting point.
COc1ccc2c(c1)C(=O)CC1C2C(OC(C)=O)CC2(C)C(OC(C)=O)CCC12 (centres undefined)
199 to 200 °C
COC(OC)c1cc(-n2c(=O)cc(C(F)(F)F)n(C)c2=O)ccc1Cl
92 to 94 °C
Nc1nc(SCCC(=O)c2ccccc2)c2[nH]cnc2n1
204 to 205 °C

The molecule listed as CC1(C)Oc2ccc(C#N)cc2C(NC(=O)Nc2ccc3c(c2)CCC3)C1O (centres undefined) has a reported melting point of 235 to 237 °C

The molecule listed as COc1ccc2c(c1)N(c1ccc(F)cc1)C(=O)C2(C)N (centres undefined) has a reported melting point of 140 to 141 °C

The molecule listed as Nc1ncc(-c2cccc(-n3cnc4cc(-c5ccoc5)ccc43)c2)cn1 has a reported melting point of 222 to 223 °C

The molecule listed as CC(C)CNS(=O)(=O)CCCCl has a reported melting point of 68 to 69 °C

The molecule listed as COC(=O)c1c(-c2ccccc2Cl)c2cc(C)cc(C)c2n(C)c1=O has a reported melting point of 128 to 129 °C

The molecule listed as COCCCN1C(=O)CC(=O)Nc2ccccc21 has a reported melting point of 137 to 138 °C

The molecule listed as COc1cc2c(cc1OC)N(C(=O)OCc1ccccc1)C(C)CC2=O (centres undefined) has a reported melting point of 128 to 130 °C

The molecule listed as CC(=Nc1ccc(O)cc1C)c1ccccc1O has a reported melting point of 144 to 156 °C

The molecule listed as CC(=O)Nc1c(C(=O)c2cccc([N+](=O)[O-])c2)[nH]c2cc(Cl)ccc12 has a reported melting point of 246 to 250 °C

The molecule listed as Nc1nc2ccc(Cc3ccc(F)cc3)cc2s1 has a reported melting point of 162 to 164 °C

The molecule listed as Cc1c(C#N)c(N)n(-c2ccccc2Br)c1C has a reported melting point of 233 to 235 °C

The molecule listed as Cc1nnc2ccc(-c3cccc(C(F)(F)F)c3)nn12 has a reported melting point of 193 to 194 °C

The molecule listed as COC(=O)c1cccc2cc(Cc3cc(NC(C)=O)ncn3)ccc12 has a reported melting point of 158 to 160 °C

The molecule listed as Fc1ccc(-c2cncc(CN3CC=C(c4ccccc4)CC3)c2)cc1 has a reported melting point of 128 to 129 °C

The molecule listed as CCN(CC)CCCCOc1ccc(-c2nnc(CSCCOc3ccccc3)o2)cc1 has a reported melting point of 35 to 38 °C

The molecule listed as CCCS(=O)(=O)N[C@H](C(=O)NCCc1ccc(OCC#Cc2ccc(Cl)cc2)c(OC)c1)C(C)C has a reported melting point of 131 to 133 °C

The molecule listed as COCc1ccc(Cn2cc(-c3ccc(OC)cc3)ccc2=O)cc1 has a reported melting point of 72 °C

----------
# melting point per record follows

In the examples that follow, each entry is paired with its recorded melting point.
CC(C)C(Cl)C(=O)Nc1c(C(=O)CC(=O)Nc2nccs2)cccc1C(F)(F)F (centres undefined)
186 °C
CC(C)(C)OC(=O)NC(CCO)C(=O)OC(c1ccccc1)c1ccccc1 (racemic)
125 to 129 °C
C=C(C)C(=O)OCCC(=O)Oc1ccc(-c2cc(OC(=O)C(=C)C)cc(-c3ccc(OC(=O)CCOC(=O)C(=C)C)cc3)c2)cc1
88 °C
CCCCCS(=O)(=O)NC(=O)/C=C/c1ccc(OCCOC)cc1Nc1ccc(C(F)(F)F)cc1Cl
174 to 175 °C
CCc1c(-c2ccc(OCc3ccccc3)cc2)c2c(C(=O)O)c(C(=O)O)c3c(OCc4ccccc4)ccc1n32
151 to 161 °C
Cc1c(NC(=O)CC(C)(C)C)c(C)c2c(c1-c1cccc(N)n1)OCC2c1ccc(C(C)C)cc1 (centres undefined)
237 to 239 °C
NC(=O)CC(CC(N)=O)c1cccc(OCc2ccccc2)c1
205 to 207 °C
COc1c(C)cc(C(=O)O)cc1-c1ccccc1
165 to 168 °C
CCN1C(=O)C2=C(c3ccccc3)N(CC)C(=O)C2=C1c1ccccc1
229 to 230 °C
O=C1C(=CO)c2ccccc2N1c1cccc(Cl)c1
175 to 178 °C

The molecule listed as O=C(Nc1nccs1)c1c(C(F)(F)F)nc(-c2ccccc2)c(-c2ccccc2)c1O has a reported melting point of 256 °C

The molecule listed as COc1cccc([C@H]2O[C@H](CC#N)C(=O)N(CC(C)(C)C)c3ccc(Cl)cc32)c1OC has a reported melting point of 193 to 194 °C

The molecule listed as Cc1c(C#N)c(-c2ccc(C#N)cc2)c(C)n1Cc1ccc(Cl)c(COC(=O)CCC(=O)O)c1 has a reported melting point of 149 to 151 °C

The molecule listed as CCCc1ccc(Oc2ccc3c(c2)C=C(C(=O)Nc2ccc(CN(C)C4CCOCC4)cc2)CCS3(=O)=O)cc1 has a reported melting point of 147 to 149 °C

The molecule listed as CC1=C2c3c(cnc4cc(Cl)ccc34)NC2C(C)CN1 (centres undefined) has a reported melting point of 188 to 190 °C

The molecule listed as Cc1nnc2ccc(-c3cccc(NC(=O)N(C)C)c3)nn12 has a reported melting point of 237 to 239 °C

The molecule listed as COc1cc(C(=O)N2CCC(CCN3CCC(C(=O)c4nc5ccccc5n4Cc4ccc(F)cc4)CC3)(c3ccc(C(F)(F)F)cc3)C2)cc(OC)c1OC (centres undefined) has a reported melting point of 55 to 57 °C

The molecule listed as COc1ccc2c(c1)CC(NC(=S)NCCOC(=O)c1ccccc1)CC2 (centres undefined) has a reported melting point of 103 to 106 °C
